Entries and their pKi
- Subject Of Test: UniProt P35462
- Sequence (P35462 whole entry): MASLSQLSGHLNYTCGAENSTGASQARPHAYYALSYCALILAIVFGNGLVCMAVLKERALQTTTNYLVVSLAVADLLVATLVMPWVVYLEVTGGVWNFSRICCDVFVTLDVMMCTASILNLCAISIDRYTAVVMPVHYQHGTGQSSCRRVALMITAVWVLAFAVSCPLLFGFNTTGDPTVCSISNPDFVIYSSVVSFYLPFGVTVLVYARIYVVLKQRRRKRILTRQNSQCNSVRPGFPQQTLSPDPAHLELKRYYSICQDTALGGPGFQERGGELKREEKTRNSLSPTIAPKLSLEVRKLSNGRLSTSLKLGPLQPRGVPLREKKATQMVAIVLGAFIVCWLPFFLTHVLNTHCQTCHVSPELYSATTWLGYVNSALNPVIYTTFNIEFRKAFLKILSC
The meaning of pKi here: minus log10 of the concentration in molar units.

Answered examples (10):
[
  {
    "Compound": "O=C(CC1CCC2(CC1)OCCO2)N[C@H]1CC[C@H](CCN2CCC(C(=O)c3ccc(F)cc3)CC2)CC1",
    "Readout Type": "pKi",
    "Result Value": 7.62
  },
  {
    "Compound": "CO[C@@H]1CC[C@H](CC(=O)N[C@H]2CC[C@H](CCN3CCC(C(=O)c4ccc(F)cc4)CC3)CC2)C1 (racemic) [Example 9]",
    "Readout Type": "pKi",
    "Result Value": 7.38
  },
  {
    "Compound": "CCO[C@H]1CC[C@H](CC(=O)N[C@H]2CC[C@H](CCN3CCC(C(=O)c4ccc(F)cc4)CC3)CC2)CC1",
    "Readout Type": "pKi",
    "Result Value": 7.48
  },
  {
    "Compound": "CO[C@H]1CC[C@@H](CC(=O)N[C@H]2CC[C@H](CCN3CCC(C(=O)c4ccc(F)cc4)CC3)CC2)CC1",
    "Readout Type": "pKi",
    "Result Value": 7.55
  },
  {
    "Compound": "O=C(C[C@H]1CC[C@@H](O)C1)N[C@H]1CC[C@H](CCN2CCC(C(=O)c3ccc(F)cc3)CC2)CC1 (racemic)",
    "Readout Type": "pKi",
    "Result Value": 7.46
  },
  {
    "Compound": "O=C(C[C@H]1CC[C@H](O)C1)N[C@H]1CC[C@H](CCN2CCC(C(=O)c3ccc(F)cc3)CC2)CC1 (racemic)",
    "Readout Type": "pKi",
    "Result Value": 7.72
  },
  {
    "Compound": "CO[C@@H]1CC[C@H](CC(=O)N[C@H]2CC[C@H](CCN3CCC(C(=O)c4ccc(F)cc4)CC3)CC2)C1 (single isomer, unassigned) [Example 10]",
    "Readout Type": "pKi",
    "Result Value": 7.25
  },
  {
    "Compound": "COC[C@H]1C[C@@H](CC(=O)N[C@H]2CC[C@H](CCN3CCC(C(=O)c4ccc(F)cc4)CC3)CC2)C1",
    "Readout Type": "pKi",
    "Result Value": 7.59
  },
  {
    "Compound": "CO[C@H]1CC[C@@H](CC(=O)N[C@H]2CC[C@H](CCN3CCC(C(=O)c4ccc(F)cc4)CC3)CC2)C1 (single isomer, unassigned)",
    "Readout Type": "pKi",
    "Result Value": 7.21
  },
  {
    "Compound": "O=C(CC1CCC(O)CC1)N[C@H]1CC[C@H](CCN2CCC(C(=O)c3ccc(F)cc3)CC2)CC1 (mixture of isomers)",
    "Readout Type": "pKi",
    "Result Value": 7.37
  }
]

Provide only the value of recorded pKi for CO[C@@H]1CC[C@@H](CC(=O)N[C@H]2CC[C@H](CCN3CCC(C(=O)c4ccc(F)cc4)CC3)CC2)C1 (single isomer, unassigned)
7.47

Provide only the value of recorded pKi for C[C@]1(O)CC[C@H](CC(=O)N[C@H]2CC[C@H](CCN3CCC(C(=O)c4ccc(F)cc4)CC3)CC2)CC1 (single isomer, unassigned)
7.31

Provide only the value of recorded pKi for CO[C@H]1CC[C@H](CC(=O)N[C@H]2CC[C@H](CCN3CCC(C(=O)c4ccc(F)cc4)CC3)CC2)C1 (racemic) [Example 8]
7.64

Provide only the value of recorded pKi for CO[C@H]1CC[C@H](CC(=O)N[C@H]2CC[C@H](CCN3CCC(C(=O)c4ccc(F)cc4)CC3)CC2)CC1
7.62

Provide only the value of recorded pKi for O=C(C[C@H]1CCC[C@@H](O)C1)N[C@H]1CC[C@H](CCN2CCC(C(=O)c3ccc(F)cc3)CC2)CC1 (racemic)
7.37

Provide only the value of recorded pKi for CO[C@@H]1CCC[C@H](CC(=O)N[C@H]2CC[C@H](CCN3CCC(C(=O)c4ccc(F)cc4)CC3)CC2)C1 (racemic)
7.35

Provide only the value of recorded pKi for CC(=O)N[C@H]1CC[C@H](CC(=O)N[C@H]2CC[C@H](CCN3CCC(C(=O)c4ccc(F)cc4)CC3)CC2)CC1
7.36

Provide only the value of recorded pKi for COC1CCC(CCC(=O)N[C@H]2CC[C@H](CCN3CCC(C(=O)c4ccc(F)cc4)CC3)CC2)CC1 (mixture of isomers)
7.39

Provide only the value of recorded pKi for CCO[C@H]1CC[C@H](CC(=O)N[C@H]2CC[C@H](CCN3CCC(C(=O)c4ccc(F)cc4)CC3)CC2)C1 (racemic)
7.38

Provide only the value of recorded pKi for O=C(CC1CCC(OC2CCOC2)CC1)N[C@H]1CC[C@H](CCN2CCC(C(=O)c3ccc(F)cc3)CC2)CC1 (mixture of isomers)
7.40

Provide only the value of recorded pKi for COCC1CCC(CC(=O)N[C@H]2CC[C@H](CCN3CCC(C(=O)c4ccc(F)cc4)CC3)CC2)C1 (mixture of isomers)
7.48

Provide only the value of recorded pKi for COC[C@H]1C[C@H](CC(=O)N[C@H]2CC[C@H](CCN3CCC(C(=O)c4ccc(F)cc4)CC3)CC2)C1
7.57
